# TESTED_TARGET: α1β3γ2L GABAA receptors (Homo sapiens, UniProt P14867+P18507+P28472)
# Sequence (P14867 28-456): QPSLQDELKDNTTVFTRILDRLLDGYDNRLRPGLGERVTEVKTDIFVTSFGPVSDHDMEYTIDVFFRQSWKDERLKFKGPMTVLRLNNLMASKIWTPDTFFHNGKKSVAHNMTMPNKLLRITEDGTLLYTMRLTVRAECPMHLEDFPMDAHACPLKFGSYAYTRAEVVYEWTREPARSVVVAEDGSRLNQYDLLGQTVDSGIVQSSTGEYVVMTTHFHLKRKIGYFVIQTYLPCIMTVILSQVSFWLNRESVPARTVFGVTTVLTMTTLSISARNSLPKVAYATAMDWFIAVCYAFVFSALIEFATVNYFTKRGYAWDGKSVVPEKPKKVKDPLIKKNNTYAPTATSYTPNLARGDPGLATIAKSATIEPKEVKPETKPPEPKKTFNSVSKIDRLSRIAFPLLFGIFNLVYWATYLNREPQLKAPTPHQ
# Sequence (P28472 26-473): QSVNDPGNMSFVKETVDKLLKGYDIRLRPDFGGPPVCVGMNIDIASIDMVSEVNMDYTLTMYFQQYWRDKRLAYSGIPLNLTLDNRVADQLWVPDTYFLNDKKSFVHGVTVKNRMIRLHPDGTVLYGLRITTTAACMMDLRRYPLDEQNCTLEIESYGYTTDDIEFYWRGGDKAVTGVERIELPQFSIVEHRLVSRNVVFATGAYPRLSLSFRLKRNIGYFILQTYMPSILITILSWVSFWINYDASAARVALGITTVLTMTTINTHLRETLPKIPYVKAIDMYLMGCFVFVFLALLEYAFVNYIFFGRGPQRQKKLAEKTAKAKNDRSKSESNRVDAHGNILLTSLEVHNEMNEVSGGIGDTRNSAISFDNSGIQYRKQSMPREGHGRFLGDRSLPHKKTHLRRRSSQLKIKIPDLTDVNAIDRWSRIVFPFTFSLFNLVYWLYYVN
# Sequence (P18507 40-475): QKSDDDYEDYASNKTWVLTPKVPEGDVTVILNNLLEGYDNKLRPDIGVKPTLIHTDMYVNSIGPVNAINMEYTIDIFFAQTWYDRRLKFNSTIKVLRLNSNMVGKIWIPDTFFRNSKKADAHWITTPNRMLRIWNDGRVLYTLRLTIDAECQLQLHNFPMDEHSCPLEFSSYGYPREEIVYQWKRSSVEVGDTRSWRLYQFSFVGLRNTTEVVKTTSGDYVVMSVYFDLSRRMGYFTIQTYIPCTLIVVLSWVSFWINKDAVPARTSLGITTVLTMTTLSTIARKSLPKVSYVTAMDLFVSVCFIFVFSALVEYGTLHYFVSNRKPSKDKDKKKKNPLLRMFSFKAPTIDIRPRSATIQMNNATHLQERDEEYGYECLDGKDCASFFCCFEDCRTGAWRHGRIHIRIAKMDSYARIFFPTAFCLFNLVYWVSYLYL
# ASSAY_CONDITIONS: IC50 for antagonizing direct activation by 20 μM etomidate in the presence of flumazenil, [Benzodiazepine]:[Flumazenil] = 1:2
REPORTED_METRIC: IC50 (µM)
Response body: numeric value in µM, unit text excluded.

Some solved entries appear below for comparison.
INSERT INTO assay_data (smiles_record, reported_metric, result_value) VALUES
  ('Cc1ncc2n1-c1ccc(Cl)cc1C(c1ccccc1F)=NC2', 'IC50', 560),
  ('O=C1CN=C(c2ccccc2)c2cc(Cl)ccc2N1', 'IC50', 32),
  ('CN1C(=O)CN=C(c2ccccc2F)c2cc(Cl)ccc21', 'IC50', 390),
  ('Clc1ccc2c(c1)C(c1ccccc1)=NCc1nncn1-2', 'IC50', 59);

We next turn to a different molecule, shown below.
Query: Would you please give the reported IC50 of O=C1CN=C(c2ccccc2)c2cc([N+](=O)[O-])ccc2N1 with α1β3γ2L GABAA receptors (Homo sapiens, UniProt P14867+P18507+P28472)?
Result: 130

Reference source for all entries: paper PMC7944240
